assay name: Acute toxicity in mice
Type: in vivo
settings: mouse, in vivo, sc.
Below, each entry is listed with its recorded LD50.
measurement type: LD50

>>> print(df.to_string())
                                   compound  measurement_type  measurement
0  CNC1C(O)C(OC2OC(CN)CCC2N)C(N)C(O)C1OC (centres unmarked)              LD50  > 600 mg/kg
1  CNC1C(O)CC(N)C(OC2OC(CN)CCC2N)C1O (centres unmarked)              LD50  > 600 mg/kg
2  CNC1C(OC)CC(N)C(OC2OC(CN)CCC2N)C1O (centres unmarked)              LD50  > 600 mg/kg
3  CNCC1CCC(N)C(OC2C(N)CC(OC)C(NC)C2O)O1 (centres unmarked)              LD50  > 600 mg/kg
4  CNCC1CCC(N)C(OC2C(N)CC(OC)C(N(C)C(=O)CN)C2O)O1 (centres unmarked)              LD50  > 400 mg/kg
